tested on: BT-549 breast; experiment: NCI-60 one-dose screen, 48 h; conditions: 10 µM unless noted
About 83,000 compounds went through this panel and 20% of them were active in at least one assay; those are over-represented in the sample as a whole. Activity calls are given as the source filed them. How the source made its calls: active means growth percent below 10; inactive means the rest.
Hi there, use one of these labels in your reply, thanks! active, inactive

{"molecule": "COC(=O)c1cc2oc(/C=N\\NC(=O)c3cc4oc(C)c(C)c4[nH]3)cc2[nH]1", "assigned label": "inactive"}
{"molecule": "O=C(N/N=C/c1ccc(Cl)cc1Cl)c1ccccc1Nc1cccc(C(F)(F)F)c1", "assigned label": "active"}
{"molecule": "Cc1ccc2nc3c(n2c1)C(=O)C(=O)c1ccccc1-3", "assigned label": "active"}
{"molecule": "O=C(/C=C/c1cccc(O)c1)c1cccc(-n2cc(-c3ccccc3)[nH]c2=O)c1", "assigned label": "active"}
{"molecule": "COC(=O)[C@H]1[C@H]2C[C@@H]3c4[nH]c5cc(OC)ccc5c4CCN3C[C@H]2C[C@@H](OC(=O)/C=C/c2cc(OC)c(OC)c(OC)c2)[C@@H]1OC", "assigned label": "inactive"}
{"molecule": "Cc1ccc(C2=Nc3c(ccc4c(C)c(C)c(=O)oc34)OC2)cc1", "assigned label": "inactive"}

Continue with the molecule presented below.
Input: // param item: Cc1c2oc3c(C)ccc(C(=O)OC(C)C4NC(=O)C(C(C)C)N(C)C(=O)CN(C)C(=O)C5CCCN5C(=O)C(C(C)C)NC4=O)c3nc-2c(C(=O)OC(C)C2NC(=O)C(C(C)C)N(C)C(=O)CN(C)C(=O)C3CCCN3C(=O)C(C(C)C)NC2=O)c(N)c1=O (configuration not stated) ; yields the recorded call
Output: active
